- assayed system: PSMA on LNCaP cells (Homo sapiens, UniProt Q04609)
- Construct: LNCaP cells (a human prostate cancer cell line over-expressing PSMA); host or cells: LNCaP
- Sequence (Q04609 whole entry): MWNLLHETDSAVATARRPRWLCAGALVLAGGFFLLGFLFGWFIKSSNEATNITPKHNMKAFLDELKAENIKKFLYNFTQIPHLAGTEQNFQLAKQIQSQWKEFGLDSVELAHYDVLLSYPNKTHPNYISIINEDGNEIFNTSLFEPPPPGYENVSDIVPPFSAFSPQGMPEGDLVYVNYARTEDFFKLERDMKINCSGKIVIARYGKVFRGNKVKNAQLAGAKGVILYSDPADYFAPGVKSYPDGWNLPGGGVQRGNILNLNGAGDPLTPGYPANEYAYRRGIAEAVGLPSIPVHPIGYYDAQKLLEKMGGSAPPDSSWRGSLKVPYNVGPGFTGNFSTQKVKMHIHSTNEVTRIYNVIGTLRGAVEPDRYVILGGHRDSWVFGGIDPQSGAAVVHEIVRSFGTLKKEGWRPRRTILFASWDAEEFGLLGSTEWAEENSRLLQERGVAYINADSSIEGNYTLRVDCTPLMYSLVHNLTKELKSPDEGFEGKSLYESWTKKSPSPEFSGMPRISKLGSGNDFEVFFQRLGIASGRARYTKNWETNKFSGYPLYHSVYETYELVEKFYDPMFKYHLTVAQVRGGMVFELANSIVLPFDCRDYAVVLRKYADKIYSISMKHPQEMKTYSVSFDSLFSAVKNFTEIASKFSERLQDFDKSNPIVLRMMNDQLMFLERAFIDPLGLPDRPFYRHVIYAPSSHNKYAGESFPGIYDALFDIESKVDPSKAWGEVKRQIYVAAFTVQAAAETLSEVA
- method: Spacer-dependent binding studies of DUPA-Linker-99mTc compounds on LNCaP cells
- measurement context: 37° C., 1 hour, 0 nM-1280 nM, read-out: Kd from cell bound radioactivity versus concentration of DUPA-Linker-99Tc imaging agents
Starred links: 1 amine or outer side, 2 acyl side, 3 side chain; linkers in the order of their positions; H or OH if unused. Non-standard residues stand in square brackets, D forms with d. Residues, ends and D or L forms follow the SMILES beside them. Groups on a side chain read outwards from the residue. γGlu = O=C(O)[C@H](CCC(=O)[*:2])N[*:1]; Dap = NC[C@H](N)C(=O)O; Aoc = NCCCCCCCC(=O)O; CO = O=C([*:1])[*:2]
Can you tell me Kd for the items I'm about to list?
Give bare numbers, in nM.

Here's what some known entries look like.
INSERT INTO results (compound, measurement_name, unit_of_measure, endpoint_result) VALUES
  ('N[C@@H](CNC(=O)CC[C@H](NC(=O)N[C@@H](CCC(=O)O)C(=O)O)C(=O)O)C(=O)N[C@@H](CC(=O)O)C(=O)N[C@@H](CS)C(=O)O [0-atom linker] (H-[Dap]([γGlu-CO-Glu])-Asp-Cys-OH)', 'Kd', 'nM', 171),
  ('N[C@@H](CNC(=O)CC[C@H](NC(=O)[C@H](Cc1ccccc1)NC(=O)CCCCCCCNC(=O)CC[C@H](NC(=O)N[C@@H](CCC(=O)O)C(=O)O)C(=O)O)C(=O)O)C(=O)N[C@@H](CC(=O)O)C(=O)N[C@@H](CS)C(=O)O [16-atom linker] (H-[Dap]([γGlu-Phe-Aoc-γGlu-CO-Glu])-Asp-Cys-OH)', 'Kd', 'nM', 40),
  ('N[C@@H](CNC(=O)[C@H](Cc1ccccc1)NC(=O)CC[C@H](NC(=O)CC[C@H](NC(=O)N[C@@H](CCC(=O)O)C(=O)O)C(=O)O)C(=O)O)C(=O)N[C@@H](CC(=O)O)C(=O)N[C@@H](CS)C(=O)O [7-atom linker] (H-[Dap]([Phe-γGlu-γGlu-CO-Glu])-Asp-Cys-OH)', 'Kd', 'nM', 68);

Moving on to another compound below.
[Q] Entry N[C@@H](CNC(=O)[C@H](Cc1ccccc1)NC(=O)[C@H](Cc1ccccc1)NC(=O)CCCCCCCNC(=O)CC[C@H](NC(=O)N[C@@H](CCC(=O)O)C(=O)O)C(=O)O)C(=O)N[C@@H](CC(=O)O)C(=O)N[C@@H](CS)C(=O)O [SK28-^99mTc, metal not drawn] (H-[Dap]([Phe-Phe-Aoc-γGlu-CO-Glu])-Asp-Cys-OH) : reported Kd = ?
[A] 15

// data source = patent US20110288152A1
